# SYSTEM: Glucagon receptor (Homo sapiens)
# Sequence (P47871 whole entry): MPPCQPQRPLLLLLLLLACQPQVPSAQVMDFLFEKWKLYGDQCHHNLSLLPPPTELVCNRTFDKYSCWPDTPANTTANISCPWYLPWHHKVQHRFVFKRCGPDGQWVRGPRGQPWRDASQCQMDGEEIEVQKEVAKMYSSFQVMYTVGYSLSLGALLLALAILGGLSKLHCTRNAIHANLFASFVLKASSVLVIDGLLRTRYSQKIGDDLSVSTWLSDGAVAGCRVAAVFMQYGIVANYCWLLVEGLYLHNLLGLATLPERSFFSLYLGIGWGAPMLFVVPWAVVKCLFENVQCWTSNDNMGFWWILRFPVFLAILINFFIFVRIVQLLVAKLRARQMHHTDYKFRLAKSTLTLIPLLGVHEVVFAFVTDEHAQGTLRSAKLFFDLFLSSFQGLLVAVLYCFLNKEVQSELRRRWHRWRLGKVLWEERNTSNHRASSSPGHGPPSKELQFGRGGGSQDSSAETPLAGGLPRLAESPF
# ASSAY_OVERVIEW: Agonist activity at human GCGR expressed in HEK293 cells assessed as cAMP level measured after 60 mins by HTRF based assay
# Type: functional, cell-based
pEC50: −log10 of the molar value.
Respond with t for pEC50 values of 9 and above, f for values below.

{"SUBSTANCE": "H-HSQGTFTSDMSSYLDSRRAQDFVDWLKNGGPSSGAPPPS-NH2", "CATEGORY": "t"}
{"SUBSTANCE": "H-HSQGTFTSDMSSYLDSRRAQDFVDWLIKGR-NH2", "CATEGORY": "f"}

Query: // inclusive: pEC50 at least 9? input: `H-HSQGTFTSDMSSYLDSRRAQDFVDWLMNT-NH2`
Reply: t

* * *

# SYSTEM: Glucagon receptor (Homo sapiens)
# ASSAY_OVERVIEW: Agonist activity at human GCGR expressed in HEK293 cells assessed as cAMP level by measuring relative percent (glucagon EC50/compound EC50) measured after 60 mins by HTRF based assay relative to glucagon
# Format: functional, cell-based
QUANTITY_NAME: Activity
// return the numeric value with its unit appended

Guide cases for Activity, answers given:
{"SUBSTANCE": "H-HSQGTFTSDMSSYLDSRRAQDFVDWLIKGRPSSGAPPPS-NH2", "QUANTITY_NAME": "Activity", "ASSAY_RESULT": "5%"}
{"SUBSTANCE": "H-HSQGTFTSDMSSYLDSRRAQDFVDWLMNT-NH2", "QUANTITY_NAME": "Activity", "ASSAY_RESULT": "18%"}
{"SUBSTANCE": "H-HSQGTFTSDMSKYLDSRRAQDFVDWLIKGR-NH2", "QUANTITY_NAME": "Activity", "ASSAY_RESULT": "5%"}
{"SUBSTANCE": "H-HSQGTFTSDMSSYLDSRRAQDFVDWLIKGR-NH2", "QUANTITY_NAME": "Activity", "ASSAY_RESULT": "3%"}
{"SUBSTANCE": "H-HSQGTFTSDMSSYLDSRRAQDFVDWLMNTKRNRNNIA-NH2", "QUANTITY_NAME": "Activity", "ASSAY_RESULT": "11%"}

Query: Look up Activity: `H-HSQGTFTSDMSKYLDSRRAQDFVDWLIKGRPSSGAPPPS-NH2`
Reply: 10%

Query: Look up Activity: `H-HSQGTFTSDMSSYLDSRRAQEFVDWLIKGR-NH2`
Reply: 3%

Query: Look up Activity: `H-HSQGTFTSDMSKYLDSRRAQDFVDWLIKG-NH2`
Reply: 4%

* * *

# SYSTEM: Glucagon-like peptide 1 receptor (Homo sapiens, UniProt P43220)
# Sequence (P43220 whole entry): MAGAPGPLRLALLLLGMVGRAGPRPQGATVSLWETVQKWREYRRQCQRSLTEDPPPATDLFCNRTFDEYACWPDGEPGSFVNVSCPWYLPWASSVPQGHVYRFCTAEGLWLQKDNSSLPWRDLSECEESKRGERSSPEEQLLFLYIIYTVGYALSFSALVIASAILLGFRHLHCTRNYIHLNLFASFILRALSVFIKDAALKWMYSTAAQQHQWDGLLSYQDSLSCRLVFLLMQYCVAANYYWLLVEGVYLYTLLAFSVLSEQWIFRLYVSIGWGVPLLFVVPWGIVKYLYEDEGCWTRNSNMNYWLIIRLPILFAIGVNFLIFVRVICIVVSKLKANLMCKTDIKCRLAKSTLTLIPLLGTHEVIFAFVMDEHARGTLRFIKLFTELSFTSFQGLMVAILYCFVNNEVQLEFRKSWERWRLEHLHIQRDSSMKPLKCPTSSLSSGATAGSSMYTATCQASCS
# ASSAY_OVERVIEW: Agonist activity at human GLP-1 receptor expressed in HEK293 cells assessed as cAMP level measured after 60 mins by HTRF based assay
# Assay type: functional, cell-based
QUANTITY_NAME: EC50 (nM)
Just the number please, in nM, no unit attached.

Guide cases for EC50, answers given:
{"SUBSTANCE": "H-HSQGTFTSDMSKYLDSRRAQDFVDWLIKG-NH2", "UNITS_LABEL": "nM", "EC50": 0.81}
{"SUBSTANCE": "H-HADGTFTSDMSSYLEEKAAKEFVDWLIKGAPK-NH2", "UNITS_LABEL": "nM", "EC50": 0.097}
{"SUBSTANCE": "H-HADGTFTSDMSSYLEEKAAKEFVDWLIKGRAK-NH2", "UNITS_LABEL": "nM", "EC50": 0.099}
{"SUBSTANCE": "H-HADGTFTSDMSSYLEEKAAKEFVDWLIAGRPK-NH2", "UNITS_LABEL": "nM", "EC50": 0.12}
{"SUBSTANCE": "H-HSQGTFTSDMSSYLDSRRAQDFVDWLKNGGPSSGAPPPS-NH2", "UNITS_LABEL": "nM", "EC50": 0.061}
{"SUBSTANCE": "H-HADGTFTSDMSSALEEKAAKEFVDWLIKGRPK-NH2", "UNITS_LABEL": "nM", "EC50": 0.56}
{"SUBSTANCE": "H-HSQGTFTSDMSSYLDSRRAQDFVDWLIKGR-NH2", "UNITS_LABEL": "nM", "EC50": 0.7}
{"SUBSTANCE": "H-HSQGTFTSDMSKYLDSRRAQDFVDWLKNGGPSSGAPPPS-NH2", "UNITS_LABEL": "nM", "EC50": 0.016}

Shift focus to the following entry.
Query: Look up EC50: `H-HADGTFTSDMSSYLEEKAAKEFVDWLIKARPK-NH2`
Reply: 0.63
